Biological target: T1, CD27 expressed on the cell surface (HT1080_CD27 cells) (human, UniProt P26842 20-260)
T1 construct: whole, on cells; also called K562_CD27
T1 sequence (looked up): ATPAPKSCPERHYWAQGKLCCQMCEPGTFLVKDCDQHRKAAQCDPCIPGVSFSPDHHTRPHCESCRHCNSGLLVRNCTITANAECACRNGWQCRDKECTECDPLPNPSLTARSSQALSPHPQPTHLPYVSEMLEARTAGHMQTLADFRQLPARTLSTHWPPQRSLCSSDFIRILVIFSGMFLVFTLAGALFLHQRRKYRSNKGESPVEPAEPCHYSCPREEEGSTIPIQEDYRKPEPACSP
Assay: cellular binding assay, HT1080_CD27 cells; note: test concentration or dose not given here
Cellular binding assay [RFU] vs 400 RFU: at or above is True, below is False.

| binder | class |
| --- | --- |
| P018.S.10.A.A04 (antibody, V domains shown, V regions on human Ig constant parts; also called AB27_164) VH: QSVEESGGRLVTPGTPLTLTCTVSGIDLSSNVMTWVRQAPGKGLEWIGYIYASATTYYATWAKGRFTISKTSTTVDLKMTSPTTEDTATYFCARERLASRGDYSDLWGQGTLVTVSS VL: AYDMTQTPASVEAAVGGTVTIKCQASESIGDLLAWYQQKPGQPPKLLIYDASDLASGVPSRFKGSGSGTEFTLTISGVESADAATYYCQQGYTTTSNVDNIFGGGTEVVVK | False |
| P018.S.04.A.C02 (antibody, V domains shown, V regions on human Ig constant parts; also called AB27_69) VH: QEQLVESGGDLVKPEGSLTLTCTASGFSFSSSYYMSWVRQAPGKGLEWIACIDTVDNYTYYASWAKGRFTISKTSSTTVSLQMTSLTAADTATYFCARERIAYNTDYFNLWGPGTLVTVSS VL: AQVLTQTPSPVSAAVGGTVTISCQSSQSLYNYNNLAWYQQKPGQPPKLLIYSVSNLASGVPSRFGGGGSGTQFTLTISDLQSADAATYYCQGYYSGAVYTFGGGTEVVVK | True |
| P018.S.06.A.F06 (antibody, V domains shown, V regions on human Ig constant parts; also called AB27_110) VH: QSVEESGGRLVTPGTPLTLTCAASGFSLNSYVMSWVRQAPGKGLEWIGYIDYGGAPYYASWAKGRFTISKTSTTVELKITSPTIEDTGTYFCARGGYGGYVLVTALWGPGTLVTVSS VL: DIVMTQTPASVSEPVGGTVTIKCQASENIYSYLAWYQQKPGQPPKLLIYQASTLASGVSSRFKGSGSGTQFTLTISDLESADAATYYCQTYYGGSTYGNGFGGGTEVVVE | False |
| P018.S.01.A.F05 (antibody, V domains shown, V regions on human Ig constant parts; also called AB27_20) VH: QEQLEESGGDLVKPEGSLTLTCTASGFSFSSSYWICWVRQAPGKGLEWIGCIITGRGNTYYANWAKGRFTISKTSSTTVTLQMTSLTAADTAIYSCARGPGGADPVNLWGPGTLVTVSS VL: DVVMTQTPASVSEPVGGTVTIKCQASQSIYSNLAWYQQKPGQPPKLLIYRASTLTSGVPSRFKGSGSGTQFTLTISDLESADAATYYCQCTYDGSSYVPNAFGGGTEVVVK | False |
| P018.S.01.A.G03 (antibody, V domains shown, V regions on human Ig constant parts; also called AB27_22) VH: QSVEESGGRLVTPGTPLTLTCTVSGFSLSSYSMIWVRQAPGKGLEWIGIVYASGSTNYASWAKGRFTISKTSTTVDLKITSPTTEDTATYFCARGDVLYAFDPWGPGTLVTVSS VL: AFELTQTPSSVSAAVGGTVTIKCQASENIYSYLAWYQQKPGQPPKRLIYYASNLASGVSSRFKGSGSGTEFTLTISDLESADAATYYCQYTYSTSPGYIFGGGTEVVVK | False |
